Target: full-length beta-Catenin (Uniprot ID P35222) (Homo sapiens, UniProt P35222)
Construct: 10 nM full-length beta-Catenin (Uniprot ID P35222)
Sequence (P35222 1-781): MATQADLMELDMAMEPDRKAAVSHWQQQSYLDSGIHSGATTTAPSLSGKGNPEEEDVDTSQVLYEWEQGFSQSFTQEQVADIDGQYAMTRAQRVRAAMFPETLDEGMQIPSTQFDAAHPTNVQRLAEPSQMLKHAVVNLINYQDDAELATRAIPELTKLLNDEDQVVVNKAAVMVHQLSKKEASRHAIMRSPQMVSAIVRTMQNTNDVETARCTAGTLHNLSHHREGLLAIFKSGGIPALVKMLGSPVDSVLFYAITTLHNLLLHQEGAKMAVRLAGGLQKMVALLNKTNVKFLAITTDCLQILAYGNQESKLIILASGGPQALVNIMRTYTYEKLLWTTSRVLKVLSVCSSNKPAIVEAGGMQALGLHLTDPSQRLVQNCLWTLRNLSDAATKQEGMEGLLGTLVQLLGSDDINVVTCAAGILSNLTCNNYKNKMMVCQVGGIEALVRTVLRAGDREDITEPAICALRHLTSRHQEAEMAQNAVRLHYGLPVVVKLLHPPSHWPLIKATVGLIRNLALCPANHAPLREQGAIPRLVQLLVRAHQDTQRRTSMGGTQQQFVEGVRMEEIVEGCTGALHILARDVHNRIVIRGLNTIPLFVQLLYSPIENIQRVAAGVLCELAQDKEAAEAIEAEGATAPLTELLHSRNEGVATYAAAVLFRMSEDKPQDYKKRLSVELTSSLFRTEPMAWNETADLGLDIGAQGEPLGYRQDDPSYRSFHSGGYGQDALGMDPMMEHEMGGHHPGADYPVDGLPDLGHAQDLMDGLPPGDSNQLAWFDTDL
Assay: Fluorescence polarization IC50 (beta-catenin / 5FAM-TCF4 10-53 competition)
Assay type: binding
Settings: fluorescence polarization; read-out: beta-Catenin FP IC50
Measurement Name: pIC50
API: returns pIC50 as number; meaning -log10 of concentration in mol/L.

Entry CC(=O)N1CCC[C@]12CC=CCCCC1(CCCC=CCCCOC(=O)N3CC[C@@](C(=O)N[C@@H](Cc4ccsc4)C(=O)N[C@@H](Cc4csc5ccccc45)C(=O)N[C@@H](CCC(N)=O)C(N)=O)(C3)NC(=O)[C@H](CC(C)C)NC(=O)[C@H](Cc3ccccc3)NC(=O)[C@H](C)NC(=O)[C@H](C)NC(=O)[C@H](CN(CC(=O)O)C(=O)c3c(F)c(F)c(F)c(F)c3F)NC(=O)[C@H](CC(=O)O)NC1=O)NC(=O)[C@H](CC(C)(C)C)NC(=O)[C@H](CC(=O)O)NC2=O (stereo partly drawn) : reported pIC50 = ?
7.89

Also check CC(=O)N1CCC[C@]12CC=CCCCC1(CCCC=CCCCOC(=O)N3CC[C@@](C(=O)N[C@@H](Cc4ccsc4)C(=O)N[C@@H](Cc4csc5ccccc45)C(=O)N[C@@H](CCC(N)=O)C(N)=O)(C3)NC(=O)[C@H](CC(=O)N3CCOCC3)NC(=O)[C@H](Cc3ccccc3)NC(=O)[C@H](C)NC(=O)[C@H](C)NC(=O)[C@H](CC(=O)O)NC(=O)[C@H](CC(=O)O)NC1=O)NC(=O)[C@H](CC(C)(C)C)NC(=O)[C@H](CC(=O)O)NC2=O (stereo partly drawn)
8.15

One more molecule: CC(=O)N1CCC[C@]12CC=CCCCC1(CCCC=CCCCCCC[C@@](C)(C(=O)N[C@@H](Cc3ccccc3)C(=O)N[C@@H](Cc3csc4ccccc34)C(=O)N[C@@H](Cc3ccco3)C(N)=O)NC(=O)[C@H](CCC(N)=O)NC(=O)[C@H](Cc3ccccc3)NC(=O)[C@H](C)NC(=O)[C@H](C)NC(=O)[C@H](CCC(=O)O)NC(=O)[C@H](CC(=O)O)NC1=O)NC(=O)[C@H](C)NC(=O)[C@H](CC(=O)O)NC2=O (stereo partly drawn)
7.06

CC(=O)N1CCC[C@]12CC=CCCCC1(CCCC=CCCCOC(=O)N3CC[C@@](C(=O)N[C@@H](Cc4ccsc4)C(=O)N[C@@H](Cc4csc5ccccc45)C(=O)N[C@@H](CC(C)(C)C)C(N)=O)(C3)NC(=O)[C@H](CC(C)C)NC(=O)[C@H](Cc3ccccc3)NC(=O)[C@H](C)NC(=O)[C@H](CC(=O)N(C)C)NC(=O)[C@H](Cc3cccc(C(=O)O)c3)NC(=O)[C@H](CC(=O)O)NC1=O)NC(=O)[C@H](CC(C)(C)C)NC(=O)[C@H](CC(=O)O)NC2=O (stereo partly drawn) , same question.
7.39

Now the same for COc1cccc(C[C@H](NC(=O)[C@]23CCN(C2)C(=O)OCCCC=CCCCC2(CCCC=CC[C@]4(CCCN4C(C)=O)C(=O)N[C@@H](CC(N)=O)C(=O)N[C@@H](CC4CCCCC4)C(=O)N2)C(=O)N[C@@H](CC(=O)O)C(=O)N[C@@H](CCC(N)=O)C(=O)N[C@@H](CCCCNC(C)C)C(=O)N[C@@H](C)C(=O)N[C@@H](Cc2ccccc2)C(=O)N[C@@H](CC(N)=O)C(=O)N3)C(=O)N[C@@H](Cc2csc3ccccc23)C(=O)N[C@@H](CCO)C(N)=O)c1 (stereo partly drawn)
5.81

// repeat for CC(=O)N1CCC[C@]12CC1OC1CCCC1(CCCC=CCCCOC(=O)N3CC[C@@](C(=O)N[C@@H](Cc4ccccc4C(F)(F)F)C(=O)N[C@@H](Cc4csc5ccccc45)C(=O)N[C@@H](CCC(N)=O)C(N)=O)(C3)NC(=O)[C@H](CC(C)C)NC(=O)[C@H](Cc3ccccc3)NC(=O)[C@H](C)NC(=O)[C@H](C)NC(=O)[C@H](Cc3cccc(C(=O)O)c3)NC(=O)[C@H](CC(=O)O)NC1=O)NC(=O)[C@H](CC(C)(C)C)NC(=O)[C@H](CC(=O)O)NC2=O (stereo partly drawn) and report
6.14

Next: CC[C@H](C)[C@@H]1NC(=O)[C@H](CC(=O)O)NC(=O)[C@]2(CC=CCCCC3(CCCC=CCCCCCC[C@@](C)(C(=O)N[C@@H](Cc4ccccc4)C(=O)N[C@@H](Cc4csc5ccccc45)C(=O)N[C@@H](CCC(N)=O)C(N)=O)NC(=O)[C@H](CC(N)=O)NC(=O)[C@H](Cc4ccccc4)NC(=O)[C@H](C)NC(=O)[C@H](C)NC(=O)[C@H](CCC(=O)O)NC(=O)[C@H](CC(=O)O)NC3=O)NC1=O)CCCN2C(C)=O (stereo partly drawn)
7.46

Please do the same for CC(=O)N1CCC[C@]12CC=CCCCC1(CCCC=CCCCOC(=O)N3CC[C@@](C(=O)N[C@@H](Cc4ccsc4)C(=O)N[C@@H](Cc4csc5ccccc45)C(=O)N[C@@H](CCC(N)=O)C(=O)NC4CCCCC4)(C3)NC(=O)[C@H](CC(N)=O)NC(=O)[C@H](Cc3ccccc3)NC(=O)[C@H](C)NC(=O)[C@H](C)NC(=O)[C@H](CN(CC(=O)O)CC(F)(F)F)NC(=O)[C@H](CC(=O)O)NC1=O)NC(=O)[C@H](CC(C)(C)C)NC(=O)[C@H](CC(=O)O)NC2=O (stereo partly drawn) as well.
7.44

# iterate: CC(=O)N1CCC[C@]12CC=CCCCC1(CCCC=CCCCOC(=O)N3CC[C@@](C(=O)N[C@@H](Cc4ccccc4C(F)(F)F)C(=O)N[C@@H](Cc4csc5ccccc45)C(=O)N[C@@H](CCC(=O)N(C)C)C(N)=O)(C3)NC(=O)[C@H](CCC(=O)N3CCOCC3)NC(=O)[C@H](Cc3ccccc3)NC(=O)[C@H](C)NC(=O)[C@H](C)NC(=O)[C@H](Cc3cccc(C(=O)O)c3)NC(=O)[C@H](CC(=O)O)NC1=O)NC(=O)[C@H](CC(C)(C)C)NC(=O)[C@H](CC(=O)O)NC2=O (stereo partly drawn) [I-2538]
7.85
